- target under test: σ2 receptor (Rattus norvegicus)
- Sequence (Q5U3Y7 1-176): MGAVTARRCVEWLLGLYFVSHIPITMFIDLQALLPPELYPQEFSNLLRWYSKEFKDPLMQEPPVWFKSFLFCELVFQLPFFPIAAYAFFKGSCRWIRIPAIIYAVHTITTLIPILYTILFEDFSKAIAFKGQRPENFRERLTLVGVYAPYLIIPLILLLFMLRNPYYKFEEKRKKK
- protocol description: σ2 receptor binding assay, [3H]DTG, rat liver membrane homogenates
quantity name: Selectivity Index Ki-σ2/Ki-VAChT

Use these answered entries as a reference point.
>  <compound>
CCOC(=O)C1CCN([C@@H]2Cc3ccccc3C[C@H]2O)CC1.Cl (relative stereo) [Compound 34e]

>  <Selectivity Index Ki-σ2/Ki-VAChT>
>14.6

$$$$
>  <compound>
Cl.O=C(C1CCN([C@@H]2Cc3ccccc3C[C@H]2O)CC1)N1CCN(Cc2ccccc2)CC1 (relative stereo) [Compound 34d]

>  <Selectivity Index Ki-σ2/Ki-VAChT>
>480.8

$$$$
>  <compound>
Cl.O=C(C1CCN([C@@H]2Cc3ccccc3C[C@H]2O)CC1)N1CCC(Cc2ccccc2)CC1 (relative stereo) [Compound 34c]

>  <Selectivity Index Ki-σ2/Ki-VAChT>
>416.7

$$$$
>  <compound>
Cl.Nc1cccc2c1C[C@@H](N1CCC(C(=O)c3ccc(F)cc3)CC1)[C@H](O)C2 [Compound 30b]

>  <Selectivity Index Ki-σ2/Ki-VAChT>
>416.7

$$$$
>  <compound>
Cl.Nc1cccc2c1C[C@@H](O)[C@H](N1CCC(C(=O)c3cccs3)CC1)C2 [Compound 31f]

>  <Selectivity Index Ki-σ2/Ki-VAChT>
>7.5

$$$$

### Prompt Provide Selectivity Index Ki-σ2/Ki-VAChT, system σ2 receptor (Rattus norvegicus), entry Cl.Nc1cccc2c1C[C@@H](N1CCC(C(=O)c3ccc(Br)s3)CC1)[C@H](O)C2 [Compound 30g]
### Response >2439.0

### Prompt Provide Selectivity Index Ki-σ2/Ki-VAChT, system σ2 receptor (Rattus norvegicus), entry Cl.O=C(C1CCN([C@@H]2Cc3ccccc3C[C@H]2O)CC1)N1CCCCC1 (relative stereo) [Compound 34a]
### Response >32.3

### Prompt Provide Selectivity Index Ki-σ2/Ki-VAChT, system σ2 receptor (Rattus norvegicus), entry Cl.O=C(C1CCN([C@@H]2Cc3ccccc3C[C@H]2O)CC1)N1CCC(c2ccccc2)CC1 (relative stereo) [Compound 34b]
### Response >483.1

### Prompt Provide Selectivity Index Ki-σ2/Ki-VAChT, system σ2 receptor (Rattus norvegicus), entry Cl.Nc1cccc2c1C[C@@H](N1CCC(C(=O)c3cccs3)CC1)[C@H](O)C2 [Compound 30f]
### Response >204.1
